Source listed as paper PMC5540273.

Tested on: DYRK1A
condition_notes: concentration: 1 μM, replicates: in singlicate; n = 1;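 note: KINOMEscan kinase panel screen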
endpoint_label: %Inh (%)
Answer format: numeric, % implied, no suffix.

A selection of reference data follows.
O=c1cc(N2CCOCC2)nc2n(Cc3cccc(C(F)(F)F)c3)ccn12 [GSK2297543]
6
Cc1ccc(C(=O)NCC(N)=O)cc1-n1c(C)cc(OCc2ccc(F)cc2F)c(Br)c1=O
0
Cc1nnc(-c2ccc3ncc(-c4ccc(S(C)=O)cc4)n3c2)o1 (stereo not drawn)
16

## Input What measured %Inh is associated with O=C(Nc1n[nH]c2cc(-c3cccc(F)c3)ccc12)C1CC1 [SB-735464] on DYRK1A?
## Output 10

## Input Recall the recorded %Inh for Cc1c2ccc(N(C)c3ccnc(Nc4cccc(S(N)(=O)=O)c4)n3)cc2nn1Cc1ccccc1.Cl.Cl [GW787226] with DYRK1A and state it.
## Output 0

## Input Notebook entry, DYRK1A assay: %Inh of `O=C(NOCC1CC1)c1ccc(F)c(F)c1Nc1ccc(I)cc1Cl` = ?
## Output 0

====

System: NIK
Construct: gene MAP3K14
condition_notes: concentration: 1 μM, replicates: in singlicate; n = 1
Binarize %Inh at 6%; below is true (1), at or above is false (0).

Take a look at these entries with their results.
Cc1nnc(-c2ccc3occ(-c4ccc(C(C)O)cc4)c3c2)o1 (stereo not drawn)
true (1)
Fc1ccc(-c2ncn(CCCN3CCOCC3)c2-c2ccccn2)cc1 [SB-211742]
true (1)
O=C(NCCCN1CCOCC1)c1cccc(Nc2nccc(Nc3ccc(Oc4ccccc4)cc3)n2)c1 [GW663929]
true (1)
O=C(c1ccc(-c2cc(-c3c[nH]nc3-c3ccccn3)ccn2)cc1)N1CCOCC1 [GW812171]
false (0)
c1ccc(-c2cc(-c3c[nH]nc3-c3ccccn3)ccn2)cc1 [GW576604]
false (0)

## Input Hello, is %Inh of the following compound strictly smaller than 6%? COc1ccc(CNC(=O)NC2CCN(c3ccnc(Nc4ccc(OC)cc4)n3)C2)cc1 (stereo not drawn) [GSK1379727]
## Output false (0)

## Input Lab log: compare recorded %Inh with 6%; is it strictly lower for COc1ccc(Nc2nccc(N3CCC(NC(=O)Nc4cc(C)ccc4C)C3)n2)cc1 (stereo not drawn) [GSK1379741] ?
## Output false (0)

## Input For `CCc1ccnc(/C=C/c2n[nH]c3cc(Sc4ccccc4C(=O)NC)ccc23)c1` , is the recorded %Inh below the cut-off of 6%?
## Output true (1)

## Input # check: %Inh < 6% for Cc1cccc(-c2nc(Nc3ccc4ncsc4c3)c3ccccc3n2)n1 [GW867588]
## Output true (1)

## Input Does this compound meet the criterion %Inh < 6%? Nc1nccc(-c2c(-c3ccc(F)cc3)ncn2C2CCN(CC(F)(F)F)CC2)n1 [SB-236560]
## Output false (0)

## Input Input O=C(Nc1n[nH]c2cc(-c3cccc(F)c3)ccc12)C1CC1 [SB-735464] ; condition: %Inh strictly below 6%. Does it hold?
## Output false (0)

## Input Could you please tell me whether %Inh recorded for Fc1ccc(-c2nn3c(OCC(F)(F)F)cccc3c2-c2ccncc2)cc1 [GW514784] is less than 6%?
## Output false (0)

## Input Strictly below 6%: is that where %Inh of NCC(NC(=O)c1cc(-c2cn[nH]c2)c(-c2ccnc3[nH]ccc23)s1)c1ccccc1.O=C(O)C(F)(F)F.O=C(O)C(F)(F)F (stereo not drawn) [GSK1325775] sits?
## Output false (0)

## Input Dear reviewer, please state whether Cl.Oc1cccc(Nc2ccnc3cc(-c4ccncc4)ccc23)c1 [GW494601] has %Inh strictly beneath 6%.
## Output false (0)

## Input Strictly below 6%: is that where %Inh of O=c1cc(N2CCOCC2)nc2n(Cc3cccc(F)c3)ccn12 [GSK2297430] sits?
## Output false (0)

## Input Take the compound O=C(Nc1cccc(-c2nn3ncccc3c2-c2ccnc(Nc3cccc(C(F)(F)F)c3)n2)c1)c1c(F)cccc1F [GSK299495] and say whether its %Inh is less than 6%.
## Output true (1)

## Input I wonder whether COCCNC(=O)c1ccc(-c2cc(C(=O)NC3CC3)cc(F)c2C)cc1 [GW868318] has %Inh below 6%. Can you tell?
## Output false (0)

====

Test system: PKN1
condition_notes: concentration: 1 μM, replicates: in singlicate; n = 1
endpoint_label: %Inh (%)
The reply should be a number in %, with the unit left off.

Sample answers from the record:
Fc1ccc(-c2nn3c(OCC(F)(F)F)cccc3c2-c2ccncc2)cc1 [GW514784]
0
O=C1NC(=O)C(N2CCc3ccccc32)=C1c1cccc(Cl)c1 [SB-408010]
0
COC(=O)Nc1nc2cc(Oc3ccc(NC(=O)Nc4cc(F)ccc4F)cc3)ccc2[nH]1.Cl [GW701424]
0
Cc1cccc(-c2nc(Nc3ccc4ncsc4c3)c3ccccc3n2)n1 [GW867588]
14
NCC(NC(=O)c1cc(-c2cn[nH]c2)c(-c2ccnc3[nH]ccc23)s1)c1ccccc1.O=C(O)C(F)(F)F.O=C(O)C(F)(F)F (stereo not drawn) [GSK1325775]
52
O=C(Nc1n[nH]c2cc(-c3cccc(F)c3)ccc12)C1CC1 [SB-735464]
7
c1ccc(-c2cc(-c3c[nH]nc3-c3ccccn3)ccn2)cc1 [GW576604]
9
Cn1ccc2ncnc(Oc3ccc(NC(=O)Nc4ccncc4)c(Cl)c3)c21
0
CCc1nc(-c2cccc(C)c2)c(-c2ccnc(NCc3ccccc3)c2)s1
14
N#Cc1c(N2CCOCC2)sc(-c2ccn[nH]2)c1-c1ccc(Cl)cc1
17

## Input Which %Inh is listed for Cc1cccc(Cn2ccn3c(=O)cc(N4CCOCC4)nc23)c1 [GSK2297542] ?
## Output 0

## Input Name the reported %Inh value associated with the compound CN(C1=C(c2ccccc2)C(=O)NC1=O)c1ccccc1 [SB-334860]
## Output 20

## Input Requested read-out: %Inh. Entry: Cc1nnc(-c2ccc3occ(-c4ccc(C(C)O)cc4)c3c2)o1 (stereo not drawn)
## Output 0

## Input Give its %Inh value. Item: c1ccc(-c2n[nH]cc2-c2ccnc3ccccc23)nc1 [GW271431]
## Output 12

## Input Report %Inh for `Cc1cccc(-c2nc(-c3ccc(S(C)(=O)=O)cc3)sc2-c2ccncc2)c1` please.
## Output 17

====

Catalogue of %Inh values
Test system: STK35
condition_notes: concentration: 1 μM, replicates: in singlicate; n = 1
Reply with just the number (in %).

O=C(NCCNc1ccnc(Nc2ccc(F)cc2)n1)Nc1ccccc1F [GSK1379880]
0

## Input Lab note: need %Inh for `CN1c2ccc(NCc3ccc(F)cc3)cc2-c2c(cnn2C)S1(=O)=O` on STK35, anyone have it?
## Output 0

## Input Recall the recorded %Inh for Cc1cccc(-c2nc(Nc3ccc4ncsc4c3)c3ccccc3n2)n1 [GW867588] with STK35 and state it.
## Output 2

## Input Write down the reported %Inh of COc1cc2ncn(-c3cc(OCc4sccc4Cl)c(C(N)=O)s3)c2cc1OC [GSK448459] , test system: STK35.
## Output 0

## Input # returns recorded %Inh (system: STK35) for Cl.Nc1ncnc2occ(-c3ccc(NC(=O)Nc4cc(C(F)(F)F)ccc4F)cc3)c12 [SB-707548]
## Output 37

====

Tested on: TAOK1
condition_notes: concentration: 1 μM, replicates: in singlicate; n = 1
Recorded measurements of %Inh, one per entry
Give the value in % but do not write % after it.

O=C(c1ccc(-c2cc(-c3c[nH]nc3-c3ccccn3)ccn2)cc1)N1CCOCC1
0

## Input Which value of %Inh has been reported for `Cc1nnc(-c2ccc(C)c(-c3ccc(C(=O)Nc4ccc(NS(C)(=O)=O)cc4)cc3)c2)o1` in the records?
## Output 0

## Input Looking for the measured %Inh of `O=C(Nc1cccc(-c2nn3ncccc3c2-c2ccnc(Nc3cccc(C(F)(F)F)c3)n2)c1)c1c(F)cccc1F` , can you help?
## Output 44

## Input For the molecule shown here, `Fc1ccc(-c2ncn(CCCN3CCOCC3)c2-c2ccccn2)cc1` , give the reported %Inh.
## Output 0

## Input Returns the measured %Inh for the input molecule. Input: Cc1nnc(-c2ccc3occ(-c4ccc(C(C)O)cc4)c3c2)o1 (stereo not shown)
## Output 0

## Input Which %Inh is reported for this molecule? `CC(C)(C)n1cnc2c(N)ncnc21`
## Output 0

## Input What %Inh value was documented for this molecule, `NS(=O)(=O)c1cccc(-c2ccc3nccc(-c4cccc(S(N)(=O)=O)c4)c3c2)c1` ?
## Output 2

## Input Given the entry COc1cc(Nc2nccc(N3CCC(NC(=O)c4cccc(NC(C)=O)c4)C3)n2)cc(OC)c1OC (stereo not shown) , report its measured %Inh.
## Output 0

## Input # get_value(readout='%Inh', item= Cc1nnc(-c2ccc3ncc(-c4ccc(S(C)=O)cc4)n3c2)o1 (stereo not shown) )
## Output 0
